- measured target: human prostanoid TP receptor (Homo sapiens, UniProt P21731)
- Construct: expressed in transfected cells
- Sequence (P21731 whole entry): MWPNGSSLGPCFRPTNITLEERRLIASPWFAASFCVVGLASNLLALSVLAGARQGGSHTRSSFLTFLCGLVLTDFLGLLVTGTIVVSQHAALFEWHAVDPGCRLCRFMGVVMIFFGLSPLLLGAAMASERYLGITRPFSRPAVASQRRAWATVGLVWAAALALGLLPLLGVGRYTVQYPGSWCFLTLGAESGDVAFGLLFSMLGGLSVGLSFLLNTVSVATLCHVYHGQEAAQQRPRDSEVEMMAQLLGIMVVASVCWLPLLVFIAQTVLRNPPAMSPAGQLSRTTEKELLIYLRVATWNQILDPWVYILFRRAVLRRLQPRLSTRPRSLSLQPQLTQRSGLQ
- assay name: FLIPR Ca2+ signaling antagonist assay, TP receptor stable cell line
- Assay type: cell-based
- cond: HEK-293 EBNA stable cell line; standard agonist U-46619; NA = inactive (no antagonism or Kb 10,000 nM); PAg, Ag not defined
parameter measured: Kb (nM)

Study these solved cases before continuing.
| molecule | Kb / nM |
| --- | --- |
| CCC(CC)COc1ccc(Br)cc1Cn1nc(CCC(=O)O)cc1C(C)C | 250 |
| CCC(CC)COc1ccc(Br)cc1Cn1ccc(CCC(=O)O)n1 | 1 |
| Cc1cc(CCC(=O)O)nn1Cc1cc(Cl)ccc1CCC1CCCC1 | 190 |
| C#Cc1ccc(OCC(CC)CC)c(Cn2nc(CCC(=O)O)cc2C)c1 | 9 |

A. CCC(CC)COc1ccc(Br)cc1Cn1nc(CC(C)C(=O)O)cc1C (centres unmarked)
B. Cc1cc(CCC(=O)NS(=O)(=O)C(F)(F)F)nn1Cc1cc(Br)ccc1OCC1CCCC1
C. CCC(CC)COc1ccc(Br)cc1Cn1nc(CCC(=O)O)cc1C(F)(F)F
D. CCC(CC)COc1ccc(F)cc1Cn1nc(CCC(=O)O)cc1C
Rank entries according to their Kb, from the largest number down. // list labels; follow requested order
C, D, A, B
(C: 150 nM, D: 100 nM, A: 20 nM, B: 2 nM)

====

- measured target: human prostanoid IP receptor (Homo sapiens)
- Construct: expressed in transfected cells
- assay name: FLIPR Ca2+ signaling antagonist assay, IP receptor stable cell line
- Type: cell-based
- cond: HEK-293 EBNA stable cell line; standard agonist Cicaprost; NA = inactive (no antagonism or Kb 10,000 nM); PAg, Ag not defined
parameter measured: IP (FLIPR) Kb

| smiles string | parameter measured | obs value |
| --- | --- | --- |
| CCC(CC)COc1ccc(Br)cc1Cn1nc(CCC(=O)O)cc1C(F)(F)F | IP (FLIPR) Kb | PAg |
| Cc1cc(CCC(=O)O)nn1Cc1cc(Cl)ccc1OCC1CCCCC1 | IP (FLIPR) Kb | Ag |
| Cc1cc(CCC(=O)O)nn1Cc1cc(Cl)ccc1OCCC1CCCC1 | IP (FLIPR) Kb | PAg |
| Cc1cc(CCC(=O)O)nn1Cc1cc(Cl)ccc1OCCCCC(C)C | IP (FLIPR) Kb | Ag |

Report measured IP (FLIPR) Kb; entry is "Cc1cc(CCC(=O)O)nn1Cc1cc(OC(F)(F)F)ccc1OCc1ccc(Cl)cc1"
PAg

Fill in IP (FLIPR) Kb for record "Cc1cc(CCC(=O)O)nn1Cc1cc(Cl)ccc1OC(CC(C)C)CC(C)C"
Ag

Tell me IP (FLIPR) Kb reported for "Cc1cc(CCC(=O)O)nn1Cc1cc(C(F)(F)F)ccc1OCc1ccc(Cl)cc1"
PAg

Supply reported IP (FLIPR) Kb belonging to this molecule: "Cc1cc(CCC(=O)O)nn1Cc1cc(Cl)ccc1OCc1ccc(Cl)cc1C(F)(F)F"
PAg

====

- measured target: human prostanoid IP receptor (Homo sapiens, UniProt P43119)
- Construct: expressed in transfected cells
- Sequence (P43119 whole entry): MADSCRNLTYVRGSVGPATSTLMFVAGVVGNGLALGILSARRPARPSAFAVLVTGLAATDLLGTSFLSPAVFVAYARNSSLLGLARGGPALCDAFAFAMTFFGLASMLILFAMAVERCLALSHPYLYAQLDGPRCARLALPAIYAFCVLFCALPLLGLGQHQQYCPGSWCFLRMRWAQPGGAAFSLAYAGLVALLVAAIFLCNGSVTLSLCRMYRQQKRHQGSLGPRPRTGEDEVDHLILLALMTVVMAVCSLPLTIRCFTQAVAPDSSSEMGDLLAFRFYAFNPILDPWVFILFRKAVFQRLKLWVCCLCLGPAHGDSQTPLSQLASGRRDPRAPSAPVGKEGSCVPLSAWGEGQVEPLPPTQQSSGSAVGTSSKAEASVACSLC
- assay name: FLIPR Ca2+ signaling antagonist assay, IP receptor stable cell line
- Assay type: cell-based
- cond: HEK-293 EBNA stable cell line; standard agonist Cicaprost; NA = inactive (no antagonism or Kb 10,000 nM); PAg, Ag not defined
parameter measured: Kb (µM)

| molecule | units symbol | Kb |
| --- | --- | --- |
| CCC(CC)COc1ccc(Br)cc1Cn1nc(CCC(=O)O)cc1C(C)(C)C | µM | 0.8 |

1. Cc1cc(CCC(=O)O)nn1Cc1cc(Cl)ccc1OCc1ccc(Cl)cc1Cl
2. C#Cc1ccc(OCC(CC)CC)c(Cn2nc(CCC(=O)O)cc2C)c1
3. Cc1cc(CCC(=O)O)nn1Cc1cc(Cl)ccc1C#CCC(C)C
Let's sort these by Kb, smallest first. Go ahead? List labels; respect the requested ordering.
1, 2, 3
(1: 1 µM, 2: 2 µM, 3: 4.5 µM)
